Reference source: patent US20220135701A1

target-of-assay: T1, human MerTK (human, UniProt Q12866 26-499)
T1 construct: also called HuMER
T1 sequence: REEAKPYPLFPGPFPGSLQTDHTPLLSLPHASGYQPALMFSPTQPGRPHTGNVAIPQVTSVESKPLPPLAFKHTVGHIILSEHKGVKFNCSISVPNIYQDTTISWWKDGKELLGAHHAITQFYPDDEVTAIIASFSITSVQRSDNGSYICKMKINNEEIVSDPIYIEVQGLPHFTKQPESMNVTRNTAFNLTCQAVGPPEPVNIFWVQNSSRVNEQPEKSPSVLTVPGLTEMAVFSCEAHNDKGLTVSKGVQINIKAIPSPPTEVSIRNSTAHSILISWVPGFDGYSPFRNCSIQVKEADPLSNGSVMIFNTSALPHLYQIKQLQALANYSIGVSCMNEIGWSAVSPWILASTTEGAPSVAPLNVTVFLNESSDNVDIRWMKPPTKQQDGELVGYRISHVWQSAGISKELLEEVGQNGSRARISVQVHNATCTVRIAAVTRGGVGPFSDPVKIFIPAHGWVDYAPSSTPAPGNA
measurement-protocol: SPR BIAcore T200, Ab captured, 37C
recorded-metric: Kd (nM)
The figure you give is taken to be in nM; do not add the unit.

Completed entries (count: 5):
Task: Which Kd value belongs to h10F7.V1 LC F87Y (antibody, name in Kabat numbering, V domains shown, Framework variant of h10F7.v1 (human IgG1)) VH: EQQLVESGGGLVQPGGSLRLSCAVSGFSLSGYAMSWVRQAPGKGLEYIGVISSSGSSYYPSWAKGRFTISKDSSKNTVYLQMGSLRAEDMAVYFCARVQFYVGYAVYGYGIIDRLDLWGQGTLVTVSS VL: DAVLTQSPDSLAVSLGERATINCQSSKSVYNNNWLSWYQQKPGQPPKLLIYRASTLESGVPDRFSGSGSGTDFTLTISSLQAEDVAVYYCAGGYSSSSSANAFGGGTKVEIK ?
Output: 8.8

Task: For h10C3.V1 HC S73N (antibody, human IgG1, name in Kabat numbering, V domains shown, Framework variant of h10C3.v1 (human IgG1)) VH: EQQLVESGGGLVQPGGSLRLSCAASGFSLSGYTMGWVRQAPGKGLEYIGVISSGGTTYYTNWAKGRFTISKDNSKNTVYLQMGSLRAEDMAVYFCARVAFTAYGGGGFPTLHRLDLWGQGTLVTVSS VL: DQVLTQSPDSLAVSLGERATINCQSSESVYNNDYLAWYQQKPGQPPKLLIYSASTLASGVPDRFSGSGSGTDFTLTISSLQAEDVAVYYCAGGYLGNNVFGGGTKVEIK , what is its reported Kd?
Output: 15

Task: Which value of Kd has been reported for h9E3.FN.V1 HC I48V (antibody, human IgG1, name in Kabat numbering, V domains shown, Framework variant of h9E3.FN.v1 (human IgG1)) VH: EQQLVESGGGLIQPGGSLRLSCAVSGFSLSSNAMSWVRQAPGKGLEWVGIISSSGSTYSASWAKGRFTISKDSSKNTMYLQMNSLRAEDTAVYFCARVGFFVGYGAYDYGIIHRLDLWGQGTLVTVSS VL: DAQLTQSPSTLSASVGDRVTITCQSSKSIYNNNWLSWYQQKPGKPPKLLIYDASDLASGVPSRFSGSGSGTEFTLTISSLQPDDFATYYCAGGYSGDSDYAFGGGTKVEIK in the records?
Output: 10.2

Task: Which Kd is reported for this binder? h9E3.FN.V1 LC A2I (antibody, human IgG1, name in Kabat numbering, V domains shown, Framework variant of h9E3.FN.v1 (human IgG1)) VH: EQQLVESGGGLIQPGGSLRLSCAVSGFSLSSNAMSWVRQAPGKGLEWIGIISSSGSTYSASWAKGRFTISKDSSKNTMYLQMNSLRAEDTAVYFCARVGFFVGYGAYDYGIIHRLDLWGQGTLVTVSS VL: DIQLTQSPSTLSASVGDRVTITCQSSKSIYNNNWLSWYQQKPGKPPKLLIYDASDLASGVPSRFSGSGSGTEFTLTISSLQPDDFATYYCAGGYSGDSDYAFGGGTKVEIK
Output: 10.7

Task: GET /values?readout=Kd&item= h10C3.V1 HC I48V (antibody, human IgG1, name in Kabat numbering, V domains shown, Framework variant of h10C3.v1 (human IgG1)) VH: EQQLVESGGGLVQPGGSLRLSCAASGFSLSGYTMGWVRQAPGKGLEYVGVISSGGTTYYTNWAKGRFTISKDSSKNTVYLQMGSLRAEDMAVYFCARVAFTAYGGGGFPTLHRLDLWGQGTLVTVSS VL: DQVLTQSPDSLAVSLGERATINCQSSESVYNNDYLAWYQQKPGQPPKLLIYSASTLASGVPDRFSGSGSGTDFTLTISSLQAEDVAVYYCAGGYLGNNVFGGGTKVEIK
Output: 17.1

New cases:
Task: So what's the measured Kd for this one? h13B4.V1 HC V24A (antibody, human IgG1, name in Kabat numbering, V domains shown, Framework variant of h13B4.v1 (human IgG1)) VH: EQQLVESGEGLVQPGGSLRLSCAASGFSLSSYAMGWVRQAPGKGLEWIGIINSYGNTYYANWAKGRFTISRDSSKNTVYLQMGSLRAEDMAVYFCARDPGVSSNLWGPGTLVTVSS VL: DVQMTQSPSTLSASVGDRVTITCQASQNIYSGLAWYQQKPGKPPKLLIYGASKLASGVPSRFSGSGSGTEFTLTISSLQPDDFATYYCQATYYSSNSVAFGGGTKVEIK
Output: 6

Task: Quick one: Kd for h9E3.FN.V1 LC P43A (antibody, name in Kabat numbering, V domains shown, Framework variant of h9E3.FN.v1 (human IgG1)) VH: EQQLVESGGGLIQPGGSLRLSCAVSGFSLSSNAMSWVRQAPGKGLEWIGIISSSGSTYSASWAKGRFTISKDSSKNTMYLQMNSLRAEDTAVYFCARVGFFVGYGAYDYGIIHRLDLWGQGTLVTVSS VL: DAQLTQSPSTLSASVGDRVTITCQSSKSIYNNNWLSWYQQKPGKAPKLLIYDASDLASGVPSRFSGSGSGTEFTLTISSLQPDDFATYYCAGGYSGDSDYAFGGGTKVEIK ?
Output: 15

Task: For h10F7.V1 HC G49S (antibody, human IgG1, name in Kabat numbering, V domains shown, Framework variant of h10F7.v1 (human IgG1)) VH: EQQLVESGGGLVQPGGSLRLSCAVSGFSLSGYAMSWVRQAPGKGLEYISVISSSGSSYYPSWAKGRFTISKDSSKNTVYLQMGSLRAEDMAVYFCARVQFYVGYAVYGYGIIDRLDLWGQGTLVTVSS VL: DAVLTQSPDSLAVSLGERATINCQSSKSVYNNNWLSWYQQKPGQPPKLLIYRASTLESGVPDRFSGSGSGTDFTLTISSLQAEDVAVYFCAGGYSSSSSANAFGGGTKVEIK , what is its reported Kd?
Output: 9.5
